Target: Solute carrier organic anion transporter family member 1B3 (Homo sapiens, UniProt Q9NPD5)
Details: chinese hamster, cho, 10 µM

>  <compound>
OC[C@H]1O[C@@H](O[C@H]2[C@H](O)[C@@H](O)[C@@H](O)O[C@@H]2CO)[C@H](O)[C@@H](O)[C@@H]1O

>  <residual activity (%)>
109.6

$$$$
>  <compound>
CC1(C)OC(=O)NC1=O

>  <residual activity (%)>
109.1

$$$$
>  <compound>
C[C@H](CCC(=O)O)[C@H]1CC[C@H]2[C@@H]3[C@H](O)C[C@@H]4C[C@H](O)CC[C@]4(C)[C@H]3C[C@H](O)[C@]12C

>  <residual activity (%)>
75.03

$$$$
>  <compound>
COC(=O)C[C@H]1C(C)(C)[C@H](O)[C@@H]2CC3=C4CC(O)O[C@@H](c5ccoc5)[C@@]4(C)CCC3[C@]1(C)C2=O (stereo partly drawn) [3,16-DIDEOXYMEXICANOLIDE-3alpha-DIOL]

>  <residual activity (%)>
96.33

$$$$
>  <compound>
COc1ccc(-c2cc(=O)c3c(O)cc(O)c(-c4cc(-c5cc(=O)c6c(O)cc(O)cc6o5)ccc4OC)c3o2)cc1

>  <residual activity (%)>
63.51

$$$$
>  <compound>
O=C1C=C2CC3(O)COc4c(ccc(O)c4O)C3=C2C=C1O (centres undefined)

>  <residual activity (%)>
73.22

$$$$
>  <compound>
Cn1cnc([N+](=O)[O-])c1Sc1ncnc2nc[nH]c12

>  <residual activity (%)>
107.3

$$$$
>  <compound>
O=c1c(O)cc([C@H]2Oc3cc(O)cc(O)c3C[C@H]2O)cc2c([C@H]3Oc4cc(O)cc(O)c4C[C@H]3O)cc(O)c(O)c12

>  <residual activity (%)>
75.27

$$$$
>  <compound>
CC(C)(C)NC[C@H](O)c1ccc(O)c(CO)c1.Cl [LEVALBUTEROL HYDROCHLORIDE]

>  <residual activity (%)>
85.66

$$$$
>  <compound>
Cl.NCCCCC(=O)O [5-AMINOPENTANOIC ACID HYDROCHLORIDE]

>  <residual activity (%)>
62.53

$$$$
>  <compound>
NCC[C@H](O)C(=O)N[C@@H]1C[C@H](N)[C@@H](O[C@H]2O[C@H](CN)[C@@H](O)[C@H](O)[C@H]2O)[C@H](O)[C@H]1O[C@H]1O[C@H](CO)[C@@H](O)[C@H](N)[C@H]1O.O=S(=O)(O)O

>  <residual activity (%)>
92.21

$$$$
>  <compound>
COc1cc2c(cc1OC)-c1c(oc3c4c(ccc3c1=O)OC(C(C)C)C4)CO2 (centres undefined) [DEHYDRODIHYDROROTENONE]

>  <residual activity (%)>
95.69

$$$$
>  <compound>
CC(=O)OCC(=O)[C@@]1(O)CC[C@H]2[C@@H]3C[C@H](C)C4=CC(=O)C=C[C@]4(C)[C@H]3[C@@H](O)C[C@@]21C [METHYLPREDNISOLONE ACETATE]

>  <residual activity (%)>
84.05

$$$$
>  <compound>
C[n+]1c2cc(N)ccc2cc2ccc(N)cc21.[Cl-]

>  <residual activity (%)>
93.94

$$$$

* * *

Target: Solute carrier organic anion transporter family member 1B3 (Homo sapiens)
Sequence (Q9NPD5 whole entry): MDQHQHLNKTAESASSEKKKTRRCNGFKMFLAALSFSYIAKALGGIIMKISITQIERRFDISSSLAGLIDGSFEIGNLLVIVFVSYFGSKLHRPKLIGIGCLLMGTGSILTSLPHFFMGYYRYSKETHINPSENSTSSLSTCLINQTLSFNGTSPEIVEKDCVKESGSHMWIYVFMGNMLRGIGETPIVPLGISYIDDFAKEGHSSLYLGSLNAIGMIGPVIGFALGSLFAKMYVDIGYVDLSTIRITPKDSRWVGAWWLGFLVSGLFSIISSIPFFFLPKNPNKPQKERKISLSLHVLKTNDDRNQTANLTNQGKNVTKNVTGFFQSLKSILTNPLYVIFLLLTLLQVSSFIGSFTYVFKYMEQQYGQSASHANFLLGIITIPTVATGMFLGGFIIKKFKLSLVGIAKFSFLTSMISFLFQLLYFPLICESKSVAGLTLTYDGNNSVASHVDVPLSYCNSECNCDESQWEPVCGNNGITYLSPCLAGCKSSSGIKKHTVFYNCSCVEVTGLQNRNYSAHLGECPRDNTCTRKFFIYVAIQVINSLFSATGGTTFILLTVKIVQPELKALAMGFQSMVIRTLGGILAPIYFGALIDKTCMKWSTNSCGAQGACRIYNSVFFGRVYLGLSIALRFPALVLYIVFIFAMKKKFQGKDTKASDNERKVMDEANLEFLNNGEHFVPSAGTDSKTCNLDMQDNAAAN
Settings: chinese hamster, cho, 10 µM
residual activity for assorted compounds
valueType: residual activity (%)

>  <compound>
NS(=O)(=O)c1cc2c(cc1Cl)NCNS2(=O)=O [HYDROCHLOROTHIAZIDE]

>  <valueType>
residual activity

>  <readoutValue>
82.24

$$$$
>  <compound>
O=[N+]([O-])NC1=NCCN1Cc1ccc(Cl)nc1 [IMIDACLOPRID]

>  <valueType>
residual activity

>  <readoutValue>
90.03

$$$$
>  <compound>
CC(C)(S)[C@@H](N)C(=O)O [PENICILLAMINE]

>  <valueType>
residual activity

>  <readoutValue>
124

$$$$
>  <compound>
CC(=O)O[C@H]1CC[C@@]2(C)C(=CC[C@@H]3[C@@H]2CC[C@]2(C)C(=O)CC[C@@H]32)C1 [DEHYDROEPIANDROSTERONE ACETATE]

>  <valueType>
residual activity

>  <readoutValue>
140.4

$$$$
>  <compound>
CC[C@H]1[C@@H]2C[C@H]3[C@@H]4N(C)c5ccccc5[C@]45C[C@@H]([C@@H]2[C@H]5O)N3[C@@H]1O [AJMALINE]

>  <valueType>
residual activity

>  <readoutValue>
91.52

$$$$
>  <compound>
C#CCOS(=O)OC1CCCCC1Oc1ccc(C(C)(C)C)cc1 (centres undefined) [PROPARGITE]

>  <valueType>
residual activity

>  <readoutValue>
106

$$$$
>  <compound>
Cc1ccccc1C(OCCN(C)C)c1ccccc1.O=C(O)CC(O)(CC(=O)O)C(=O)O (centres undefined) [ORPHENADRINE CITRATE]

>  <valueType>
residual activity

>  <readoutValue>
96.44

$$$$
>  <compound>
O=C(O)c1cc([N+](=O)[O-])ccc1NCCCc1ccccc1

>  <valueType>
residual activity

>  <readoutValue>
33.43

$$$$
>  <compound>
O=C(O)COc1cc(Cl)c(Cl)cc1Cl [2,4,5-TRICHLOROPHENOXYACETIC ACID]

>  <valueType>
residual activity

>  <readoutValue>
96.75

$$$$

* * *

Target: Solute carrier organic anion transporter family member 1B1 (Homo sapiens, UniProt Q9Y6L6)
Sequence (Q9Y6L6 whole entry): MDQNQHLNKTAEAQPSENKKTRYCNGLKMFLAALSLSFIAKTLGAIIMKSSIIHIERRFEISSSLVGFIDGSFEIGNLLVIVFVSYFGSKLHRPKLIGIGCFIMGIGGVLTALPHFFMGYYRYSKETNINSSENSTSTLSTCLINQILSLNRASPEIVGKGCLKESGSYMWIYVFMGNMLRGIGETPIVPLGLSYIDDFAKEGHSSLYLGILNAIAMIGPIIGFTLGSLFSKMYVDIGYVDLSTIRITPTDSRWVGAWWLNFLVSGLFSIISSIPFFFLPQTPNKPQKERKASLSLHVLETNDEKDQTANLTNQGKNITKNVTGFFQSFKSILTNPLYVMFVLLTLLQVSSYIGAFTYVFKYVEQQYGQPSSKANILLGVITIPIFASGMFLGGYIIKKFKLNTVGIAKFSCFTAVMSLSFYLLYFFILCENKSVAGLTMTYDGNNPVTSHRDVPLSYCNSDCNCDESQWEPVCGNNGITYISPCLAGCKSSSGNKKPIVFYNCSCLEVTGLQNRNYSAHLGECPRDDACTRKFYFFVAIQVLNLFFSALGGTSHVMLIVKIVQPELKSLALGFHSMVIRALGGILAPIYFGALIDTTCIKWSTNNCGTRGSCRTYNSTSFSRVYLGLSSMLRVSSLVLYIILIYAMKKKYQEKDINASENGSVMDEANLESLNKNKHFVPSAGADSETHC
Conditions: chinese hamster, cho, 10 µM
valueType: residual activity

>  <compound>
CN1C[C@H](C(=O)N[C@]2(C)O[C@@]3(O)[C@@H]4CCCN4C(=O)[C@H](Cc4ccccc4)N3C2=O)C[C@@H]2c3cccc4[nH]cc(c34)C[C@H]21.CS(=O)(=O)O [DIHYDROERGOTAMINE MESYLATE]

>  <readoutValue>
27.06%

$$$$
>  <compound>
Cc1cc(OC(=O)c2c(C)cc(O)cc2O)cc(O)c1C(=O)O

>  <readoutValue>
61.21%

$$$$
>  <compound>
CC(=O)O[C@H]1C[C@@H](O)C(C)(C)[C@@H]2C[C@@H](OC(C)=O)[C@]3(C)[C@H](CC[C@@]4(C)[C@@H](c5ccoc5)OC(=O)[C@H]5O[C@@]534)[C@@]12C

>  <readoutValue>
94.07%

$$$$
>  <compound>
CC(=O)O.CSC(=N)NCCC[C@H](N)C(=O)O [S-METHYL-L-THIOCITRULLINE ACETATE]

>  <readoutValue>
104.5%

$$$$
>  <compound>
CC(C)C1=CC2=CC[C@@H]3[C@](C)(CCC[C@@]3(C)C(=O)O)[C@H]2CC1

>  <readoutValue>
7.365%

$$$$
>  <compound>
O=C(O)c1cccnc1C(=O)O

>  <readoutValue>
103.9%

$$$$
>  <compound>
Cc1nc(C)c(Cl)c(O)c1Cl

>  <readoutValue>
154.4%

$$$$
>  <compound>
CSCC[C@H](N)C(=O)N[C@@H](CC(C)C)C(=O)N[C@@H](Cc1ccccc1)C(=O)OC(C)=O

>  <readoutValue>
102.4%

$$$$
>  <compound>
COc1c(Cl)c(C)c2c(c1Cl)OC(=O)c1c(C)c(Cl)c(OC)c(Cl)c1O2

>  <readoutValue>
97.17%

$$$$
>  <compound>
CN(C)CCC=C1c2ccccc2C=Cc2ccccc21.Cl [CYCLOBENZAPRINE HYDROCHLORIDE]

>  <readoutValue>
85.24%

$$$$
>  <compound>
Cn1c(=O)c2c(ncn2CCCl)n(C)c1=O

>  <readoutValue>
90.03%

$$$$
>  <compound>
C/C=C(\C)C(=O)O[C@H]1[C@H](OC(C)=O)[C@@]2(CO)C(CC1(C)C)C1=CC[C@@H]3[C@@]4(C)CC[C@H](O[C@@H]5O[C@H](C(=O)O)[C@@H](O[C@@H]6O[C@H](CO)[C@@H](O)[C@H](O)[C@H]6O)[C@H](O)[C@H]5O[C@@H]5O[C@H](CO)[C@@H](O)[C@H](O)[C@H]5O)[C@H](CO)C4CC[C@@]3(C)[C@@]1(C)C[C@H]2O (stereo not given in full)

>  <readoutValue>
11.04%

$$$$
>  <compound>
O=C(NCO)c1cccnc1 [N-HYDROXYMETHYLNICOTINAMIDE]

>  <readoutValue>
121.9%

$$$$
>  <compound>
COc1ccc2c(c1)[C@@]1(C)CC[C@@H](O)C[C@@H]1CC2

>  <readoutValue>
95.25%

$$$$
>  <compound>
NC(=O)N/N=C/c1ccc([N+](=O)[O-])o1

>  <readoutValue>
93.46%

$$$$
>  <compound>
CC(=O)O[C@H]1CC[C@@]2(C)[C@H](CC[C@@H]3[C@@H]2CC[C@]2(C)[C@@H]4[C@H](C[C@@H]32)O[C@]2(CC[C@@H](C)CO2)[C@H]4C)C1

>  <readoutValue>
103.6%

$$$$
>  <compound>
CC(=O)O[C@H]1CC[C@]2(C)C3=CC(=O)[C@@]4(C)C(C[C@@H]5OC6(OCC(C)CC6Br)[C@@H](C)[C@@H]54)C3CC[C@H]2C1 (stereo not given in full)

>  <readoutValue>
102.6%

$$$$
>  <compound>
CC1(C)[C@H](O)CC(=O)[C@]2(C)[C@H]3CC[C@@]4(C)[C@H](c5ccoc5)OC(=O)[C@H]5O[C@]54[C@]3(C)C(=O)C[C@@H]12

>  <readoutValue>
33.49%

$$$$
>  <compound>
COc1cc2c(cc1OC)C1(O)C(=O)c3ccc(O)c(C(=O)O)c3OC1CO2 (stereo not given)

>  <readoutValue>
215.8%

$$$$
>  <compound>
C=CC1=C(C(=O)O)N2C(=O)[C@@H](NC(=O)/C(=N\O)c3csc(N)n3)[C@H]2SC1

>  <readoutValue>
92.13%

$$$$
>  <compound>
CC(C)=CCCC1(C)C=Cc2c(O)c3c(c(CC=C(C)C)c2O1)OC12C(=CC4CC1C(C)(C)OC2(C/C=C(/C)C(=O)O)C4O)C3=O (stereo not given) [DIHYDROGAMBOGIC ACID]

>  <readoutValue>
14.23%

$$$$
>  <compound>
CC(CCc1ccccc1)NC(C)C(O)c1ccc(O)cc1.Cl (stereo not given) [NYLIDRIN HYDROCHLORIDE]

>  <readoutValue>
112.1%

$$$$
>  <compound>
NC(=O)N1c2ccccc2C=Cc2ccccc21 [CARBAMAZEPINE]

>  <readoutValue>
121.6%

$$$$
>  <compound>
CC(C(=O)O)c1ccc(-c2ccccc2)c(F)c1 (stereo not given)

>  <readoutValue>
227%

$$$$
>  <compound>
CCn1cc(C(=O)O)c(=O)c2cc3c(cc21)OCO3

>  <readoutValue>
55.65%

$$$$
>  <compound>
CN(C)C(=S)SSC(=S)N(C)C

>  <readoutValue>
104.4%

$$$$
>  <compound>
O=C1C(CC[S+]([O-])c2ccccc2)C(=O)N(c2ccccc2)N1c1ccccc1 (stereo not given)

>  <readoutValue>
55.19%

$$$$
>  <compound>
COc1ccc(-c2coc3cc(O)ccc3c2=O)cc1

>  <readoutValue>
169.8%

$$$$
>  <compound>
C#C[C@]1(O)CC[C@H]2[C@@H]3CCc4cc(O)ccc4[C@H]3CC[C@@]21C

>  <readoutValue>
13.12%

$$$$
>  <compound>
CC(C)NCC(O)COc1cccc2ccccc12.Cl (stereo not given) [PROPRANOLOL HYDROCHLORIDE]

>  <readoutValue>
59.88%

$$$$

Origin of measurements: ChEMBL document CHEMBL3039007
